Each recorded value in this set is attributed to patent US4055715A.

Assay: Acute toxicity in mice, intravenous injection
Details: mouse, in vivo
measured.metric: LD50 (mg/kg)
Answers are plain numbers, in mg/kg.

smiles.entry	experimental.value
CNC[C@@H]1CC[C@@H](N)[C@@H](O[C@H]2[C@H](O)[C@@H](O[C@H]3OC[C@](C)(O)[C@H](NC)[C@H]3O)[C@H](N)C[C@@H]2N)O1	93

Okay, now this compound:
Entry CNC[C@@H]1CC[C@@H](N)[C@@H](O[C@H]2[C@H](O)[C@@H](O[C@H]3OC[C@](C)(O)[C@H](NC)[C@H]3O)[C@H](NC(=O)[C@@H](O)CCN)C[C@@H]2N)O1 ; LD50 = 250
